Biological target: T1, antigen (11A12) containing the ED-A domain of human fibronectin (human, UniProt P02751 1629-1905)
T1 construct: Immobilised on a CM5 chip by amine coupling
T1 sequence (P02751 other isoform, or with tags, fused parts or gaps limits assumed): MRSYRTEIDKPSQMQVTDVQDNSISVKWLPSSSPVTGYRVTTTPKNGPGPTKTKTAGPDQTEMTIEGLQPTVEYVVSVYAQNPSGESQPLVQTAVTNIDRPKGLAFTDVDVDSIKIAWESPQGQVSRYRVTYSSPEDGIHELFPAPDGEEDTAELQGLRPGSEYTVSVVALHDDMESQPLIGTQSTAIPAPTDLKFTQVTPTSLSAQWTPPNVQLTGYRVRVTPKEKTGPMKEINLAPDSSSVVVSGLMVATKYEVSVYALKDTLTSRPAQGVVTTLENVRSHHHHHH
Assay: SPR (BIAcore), monomeric scFv over 11A12 immobilised on CM5 chip
Procedure: The kₒₙ, koff and KD of the parent anti-ED-A antibody and anti-ED-A antibodies B2, C5, D5, C8, F8, B7 and G9 were evaluated using Surface Plasmon Resonance. The chip was equilibrated over night with the same buffer used during the assay at a buffer flow rate of 5 μl/min. The whole coating procedure was performed at this flow rate. […] Each sample was assayed at a flow rate 20 μl/min. […] The kₒₙ, koff and KD values for each anti-ED-A antibody were evaluated using the BIAevaluation software.
Outcome Measure: koff (s⁻¹)

Binder	Outcome Measure	Unit Abbreviation	Reported Value
anti-ED-A antibody C5 (scFv, scFv; Supernatant in BIAcore analysis 1, purified monomeric fraction in BIAcore analysis 2) scFv: EVQLVESGGGLVQPGGSLRLSCAASGFTFSPITMSWVRQAPGKGLEWVSAISGSGGSTYYADSVKGRFTISRDNSKNTLYLQMNSLRAEDTAVYYCAKSTHLYLFDYWGQGTLVTVSSGGGGSGGGGSGGGGSGGGGSEIVLTQSPGTLSLSPGEKATLSCRASQSVSLHFLAWYQQKPGQAPRLLIYGASSRATGIPDRFSGSGSGTDFTLTISRLEPEDFAVYYCQQMRGRPPTFGQGTKVEIKAAAEQKLISEEDLNGAA	koff	s⁻¹	0.00923
